Experiment: Aqueous solubility of the compound
Format: physicochemical
Conditions: buffer
Property: solubility (µM)

                                smiles_code  reported_value
0  CS(=O)(=O)NCc1nc2cnc3[nH]ccc3c2n1[C@@H]1C[C@H]2CC[C@@H]1C2              71

* * *

Assay: AUC in Sprague-Dawley rat at 2 mg/kg, po administered as suspension
Format: ADME, organism-based
Set-up: dose 2 mg/kg, route oral
Details: plasma
Property: AUC (µM·h)

In [3]: df
Out[3]:
                                smiles_code  reported_value
0  CS(=O)(=O)NCc1nc2cnc3[nH]ccc3c2n1[C@@H]1C[C@H]2CC[C@@H]1C2             2.2

* * *

Assay: Half life in Sprague-Dawley rat at 0.4 mg/kg, iv administered as bolus dose
Type: ADME, organism-based
Design: dose 0.4 mg/kg, route intravenous
Conditions: in vivo
Property: half-life

>>> df
                                smiles_code  reported_value
0  CS(=O)(=O)NCc1nc2cnc3[nH]ccc3c2n1[C@@H]1C[C@H]2CC[C@@H]1C2           1.5 h

* * *

Experiment: Oral bioavailability in Sprague-Dawley rat at 2 mg/kg administered as suspension
Assay type: ADME, organism-based
Conditions: in vivo
Property: bioavailability

>>> print(df.to_string())
                                smiles_code         property  reported_value
0  CS(=O)(=O)NCc1nc2cnc3[nH]ccc3c2n1[C@@H]1C[C@H]2CC[C@@H]1C2  bioavailability             79%

* * *

Biological target: Tyrosine-protein kinase JAK1 (Homo sapiens, UniProt P23458)
Sequence (P23458 whole entry): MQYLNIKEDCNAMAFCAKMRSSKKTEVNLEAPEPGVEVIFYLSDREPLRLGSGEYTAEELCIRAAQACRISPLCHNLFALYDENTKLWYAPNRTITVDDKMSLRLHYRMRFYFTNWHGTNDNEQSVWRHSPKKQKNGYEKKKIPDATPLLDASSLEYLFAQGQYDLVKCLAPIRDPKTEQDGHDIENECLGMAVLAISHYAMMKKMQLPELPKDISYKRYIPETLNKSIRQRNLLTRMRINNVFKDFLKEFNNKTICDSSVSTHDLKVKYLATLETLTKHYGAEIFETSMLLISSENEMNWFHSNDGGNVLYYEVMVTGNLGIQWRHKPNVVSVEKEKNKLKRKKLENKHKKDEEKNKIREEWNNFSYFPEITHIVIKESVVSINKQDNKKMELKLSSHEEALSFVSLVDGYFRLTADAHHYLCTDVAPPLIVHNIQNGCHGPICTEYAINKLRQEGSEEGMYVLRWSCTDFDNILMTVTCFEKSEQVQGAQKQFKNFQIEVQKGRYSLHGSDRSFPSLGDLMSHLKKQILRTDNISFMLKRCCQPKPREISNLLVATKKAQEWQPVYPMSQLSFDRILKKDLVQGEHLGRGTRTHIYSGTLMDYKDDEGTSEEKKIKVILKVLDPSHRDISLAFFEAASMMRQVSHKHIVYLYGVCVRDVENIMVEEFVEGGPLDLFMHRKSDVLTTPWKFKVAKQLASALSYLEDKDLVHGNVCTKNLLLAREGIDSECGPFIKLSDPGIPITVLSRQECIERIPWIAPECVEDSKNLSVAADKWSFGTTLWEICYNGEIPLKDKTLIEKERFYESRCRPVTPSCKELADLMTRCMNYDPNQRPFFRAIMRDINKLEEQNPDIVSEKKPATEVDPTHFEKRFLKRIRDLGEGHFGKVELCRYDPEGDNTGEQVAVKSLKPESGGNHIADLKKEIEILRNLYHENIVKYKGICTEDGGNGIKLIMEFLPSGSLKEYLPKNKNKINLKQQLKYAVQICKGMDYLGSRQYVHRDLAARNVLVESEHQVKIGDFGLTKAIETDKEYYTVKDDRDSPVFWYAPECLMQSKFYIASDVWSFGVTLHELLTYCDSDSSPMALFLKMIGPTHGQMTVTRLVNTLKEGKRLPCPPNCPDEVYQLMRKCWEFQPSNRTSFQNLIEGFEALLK
Property: log10(EC50) (log10 of the value in nM)

In [3]: df
Out[3]:
                                    compound                              assay_target  reported_value
 0  N#CCCN1CCC(n2c(CC3CCCC3)nc3cnc4[nH]ccc4c32)CC1  Tyrosine-protein kinase JAK1 (Homo sapiens, UniProt P23458)            3.30
 1  N#CCCN1CCC(n2c(C3CCC3)nc3cnc4[nH]ccc4c32)CC1  Tyrosine-protein kinase JAK1 (Homo sapiens, UniProt P23458)            2.63
 2    CC(=O)NCCc1nc2cnc3[nH]ccc3c2n1C1CCCCC1  Tyrosine-protein kinase JAK1 (Homo sapiens, UniProt P23458)            2.32
 3  N#CCCN1CCC(n2c(CCn3cccn3)nc3cnc4[nH]ccc4c32)CC1  Tyrosine-protein kinase JAK1 (Homo sapiens, UniProt P23458)            3.26
 4  CC(C)c1nc2cnc3[nH]ccc3c2n1C1CCN(CCC#N)CC1  Tyrosine-protein kinase JAK1 (Homo sapiens, UniProt P23458)            2.61
 5  N#CCCN1CCC(n2c(C3CC3)nc3cnc4[nH]ccc4c32)CC1  Tyrosine-protein kinase JAK1 (Homo sapiens, UniProt P23458)            2.20
 6  CC(=O)NCc1nc2cnc3[nH]ccc3c2n1C1CC2CCC1C2 (racemic)  Tyrosine-protein kinase JAK1 (Homo sapiens, UniProt P23458)            2.20
 7  CS(=O)(=O)NCc1nc2cnc3[nH]ccc3c2n1C1CC2CCC1O2 (racemic)  Tyrosine-protein kinase JAK1 (Homo sapiens, UniProt P23458)            3.62
 8  CCOC(=O)NCc1nc2cnc3[nH]ccc3c2n1C1CCN(CCC#N)CC1  Tyrosine-protein kinase JAK1 (Homo sapiens, UniProt P23458)            2.80
 9  Cn1ccc(CCc2nc3cnc4[nH]ccc4c3n2C2CCN(CCC#N)CC2)n1  Tyrosine-protein kinase JAK1 (Homo sapiens, UniProt P23458)            3.41
10  CC(=O)NCc1nc2cnc3[nH]ccc3c2n1C1CCN(CC(F)(F)F)CC1  Tyrosine-protein kinase JAK1 (Homo sapiens, UniProt P23458)            3.18
11  N#CCCN1CCC(n2c(CCC3CCCO3)nc3cnc4[nH]ccc4c32)CC1 (racemic)  Tyrosine-protein kinase JAK1 (Homo sapiens, UniProt P23458)            2.76
